Please provide measured IC50 for the entries that follow.
- Tgt: T1, recombinant Cad-11 EC1 human IgG1 fusion protein (R&D Systems Cat. No. 1790-CA-050) (human, UniProt P55287 54-617, limits assumed)
- T1 construct: bought; also called recombinant human Cad-11 EC1; recombinant human Cad-11 fusion protein; not shown: human IgG1 part
- T1 sequence: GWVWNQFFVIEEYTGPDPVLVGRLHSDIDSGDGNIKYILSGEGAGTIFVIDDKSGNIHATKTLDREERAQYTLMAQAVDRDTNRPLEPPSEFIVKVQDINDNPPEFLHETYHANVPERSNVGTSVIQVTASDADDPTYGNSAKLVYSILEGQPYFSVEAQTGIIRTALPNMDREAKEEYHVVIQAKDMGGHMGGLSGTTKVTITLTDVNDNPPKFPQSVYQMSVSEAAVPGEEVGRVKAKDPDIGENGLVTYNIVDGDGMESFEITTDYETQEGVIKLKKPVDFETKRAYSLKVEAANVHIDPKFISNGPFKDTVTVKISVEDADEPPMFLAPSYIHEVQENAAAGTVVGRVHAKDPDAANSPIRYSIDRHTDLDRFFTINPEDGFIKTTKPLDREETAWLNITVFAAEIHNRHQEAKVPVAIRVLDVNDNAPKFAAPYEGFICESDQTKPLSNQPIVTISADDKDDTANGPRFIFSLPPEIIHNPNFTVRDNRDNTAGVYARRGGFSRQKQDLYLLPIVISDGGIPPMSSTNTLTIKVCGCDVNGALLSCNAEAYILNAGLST
- Protocol: competition ELISA against biotinylated SYN0012/H1M1 (competitor) on coated fusion protein; text says values are normalised to the IC50 of SYN0012
Answer format: numeric, µg/mL implied, no suffix.

Fill in IC50 for record SDP141 humanized anti-Cad-11 EC1 antibody (Vκ3/VH4) (antibody, IgG4, V domains shown, humanized IgG4 (S241P), kappa) VH: EVQLVQSGAEVKKPGASVKVSCKASGYSFTGYFMNWVRQAPGQGLEWIGRINPYTGDTFYNQKFKGRATITVDKSTSTAYMELSSLRSEDTAVYYCGRLGSRYWYFDVWGQGTTVTVSS VL: DVVMTQTPLSSPVTLGQPASISCRSSQSIIHSNGNTYLEWYLQKPGQSPQLLIYKVSNRFSGVPDRFSGSGSGTDFTLKISRVEAEDVGVYYCFQGSHVPWTFGQGTKLEIK 0.61

Report IC50 for SDP111 humanized anti-Cad-11 EC1 antibody (Vκ3/VH1) (antibody, IgG4, V domains shown, humanized IgG4 (S241P), kappa) VH: EVQLVQSGPELKKPGASVKISCKASGYSFTGYFMNWVKQAHGQGLEWIGRINPYTGDTFYNQKFKGRATLTVDKSSSTAYMELVSLSSEDSAVYYCGRLGSRYWYFDVWGQGTTVTVSS VL: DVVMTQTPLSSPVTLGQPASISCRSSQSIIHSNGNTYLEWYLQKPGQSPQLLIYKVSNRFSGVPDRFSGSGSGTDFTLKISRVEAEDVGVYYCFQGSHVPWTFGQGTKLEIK 0.68

Using the record for SDP041 humanized anti-Cad-11 EC1 antibody (Vκ1/VH4) (antibody, IgG4, V domains shown, humanized IgG4 (S241P), kappa) VH: EVQLVQSGAEVKKPGASVKVSCKASGYSFTGYFMNWVRQAPGQGLEWIGRINPYTGDTFYNQKFKGRATITVDKSTSTAYMELSSLRSEDTAVYYCGRLGSRYWYFDVWGQGTTVTVSS VL: DVLMTQTPLSSPVTLGQPASISCRSSQSIIHSNGNTYLEWYLQKPGQSPQLLIYKVSNRFSGVPDRFTGSGSGTDFTLKISRVEAEDVGVYYCFQGSHVPWTFGQGTKLEIK , state its measured IC50. 0.65

In one line, give reported IC50 of the entry SDP091 humanized anti-Cad-11 EC1 antibody (Vκ2/VH4) (antibody, IgG4, V domains shown, humanized IgG4 (S241P), kappa) VH: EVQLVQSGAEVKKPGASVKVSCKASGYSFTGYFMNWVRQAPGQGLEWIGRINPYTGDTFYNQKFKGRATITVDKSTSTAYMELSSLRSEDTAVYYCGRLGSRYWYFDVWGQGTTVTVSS VL: DVLMTQTPLSSPVTLGQPASISCRSSQSIIHSNGNTYLEWYLQKPGQSPQLLIYKVSNRFSGVPDRFSGSGSGTDFTLKISRVEAEDVGVYYCFQGSHVPWTFGQGTKLEIK . 0.57

Give the measured IC50 for SDP121 humanized anti-Cad-11 EC1 antibody (Vκ3/VH2) (antibody, IgG4, V domains shown, humanized IgG4 (S241P), kappa) VH: EVQLVQSGAEVKKPGASVKISCKASGYSFTGYFMNWVKQAPGQGLEWIGRINPYTGDTFYNQKFKGRATLTVDKSTSTAYMELSSLRSEDTAVYYCGRLGSRYWYFDVWGQGTTVTVSS VL: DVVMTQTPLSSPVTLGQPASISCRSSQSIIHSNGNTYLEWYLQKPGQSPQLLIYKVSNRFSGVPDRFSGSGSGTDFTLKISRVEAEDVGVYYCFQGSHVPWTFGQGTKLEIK 0.52

Tell me its IC50 given SDP101 humanized anti-Cad-11 EC1 antibody (Vκ2/VH5) (antibody, IgG4, V domains shown, humanized IgG4 (S241P), kappa) VH: EVQLVQSGAEVKKPGASVKVSCKASGYSFTGYFMNWVRQAPGQGLEWIGRINPYTGDTFYNQKFKGRVTITVDKSTSTAYMELSSLRSEDTAVYYCGRLGSRYWYFDVWGQGTTVTVSS VL: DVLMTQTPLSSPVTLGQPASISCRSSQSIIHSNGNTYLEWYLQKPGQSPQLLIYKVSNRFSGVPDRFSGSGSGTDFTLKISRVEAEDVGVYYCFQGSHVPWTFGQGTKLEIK as the entry. 0.53

Provide only the value of recorded IC50 for SDP051 humanized anti-Cad-11 EC1 antibody (Vκ1/VH5) (antibody, IgG4, V domains shown, humanized IgG4 (S241P), kappa) VH: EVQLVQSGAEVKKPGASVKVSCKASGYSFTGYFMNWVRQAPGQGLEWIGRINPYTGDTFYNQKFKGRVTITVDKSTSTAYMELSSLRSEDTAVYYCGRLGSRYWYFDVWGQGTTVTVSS VL: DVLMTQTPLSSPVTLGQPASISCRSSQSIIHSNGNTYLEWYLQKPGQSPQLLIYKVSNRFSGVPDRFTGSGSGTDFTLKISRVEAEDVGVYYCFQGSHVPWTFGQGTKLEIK 0.99
